Data origin, for the record: the supplement of paper PMC7877785

# ASSAY INFO: self-splicing fitness, log relative to wild type (ln ratio); higher = more splicing; Tetrahymena group I intron in knt gene, E. coli kanamycin selection, DiMSum; sequences stand for … in CUCUCU…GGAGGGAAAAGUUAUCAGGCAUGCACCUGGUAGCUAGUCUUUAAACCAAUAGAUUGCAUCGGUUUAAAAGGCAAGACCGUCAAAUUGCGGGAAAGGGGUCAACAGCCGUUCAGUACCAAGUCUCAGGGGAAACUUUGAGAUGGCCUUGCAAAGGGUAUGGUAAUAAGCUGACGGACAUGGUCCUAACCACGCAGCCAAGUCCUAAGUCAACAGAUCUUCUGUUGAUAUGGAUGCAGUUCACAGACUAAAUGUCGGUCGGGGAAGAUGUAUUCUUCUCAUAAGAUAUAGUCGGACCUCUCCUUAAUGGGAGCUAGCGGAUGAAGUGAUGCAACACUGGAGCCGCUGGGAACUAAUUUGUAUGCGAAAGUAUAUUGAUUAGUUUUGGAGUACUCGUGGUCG;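 also: selection with 25 µg/mL kanamycin versus none on LB agar overnight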
# STATED CONDITIONS: 30 °C
Known self-splicing fitness (ln) of a selection of sequences
When you answer, write just the number.

BIOPOLYMER SEQUENCE | self-splicing fitness (ln)
GAUGAGCAAUAUUACGUGCC | -2.92
CAUCAGCAAUAUUACGGGAG | -0.766
CCCAAGCAAUAUUACGCCUA | -2.65
GUGCAGCAAUAUUACGAGAU | -3.67
CCAUAGCAAUAUUACGCAUA | -3.76

Entry CACUAGCAAUAUUACGUGCC ; self-splicing fitness (ln) = -4.04

Entry AUAGAGCAAUAUUACGCAUG ; self-splicing fitness (ln) = -1.85

Entry CAUGAGCAAUAUUACGACGA ; self-splicing fitness (ln) = -2.3

Entry UUGCAGCAAUAUUACGAUCA ; self-splicing fitness (ln) = -1.37

Entry ACAGAGCAAUAUUACGGUUU ; self-splicing fitness (ln) = -3.11

###

# ASSAY INFO: self-splicing fitness, log relative to wild type (ln ratio); higher = more splicing; Tetrahymena group I intron in knt gene, E. coli kanamycin selection, DiMSum; sequences stand for … in CUCUCU…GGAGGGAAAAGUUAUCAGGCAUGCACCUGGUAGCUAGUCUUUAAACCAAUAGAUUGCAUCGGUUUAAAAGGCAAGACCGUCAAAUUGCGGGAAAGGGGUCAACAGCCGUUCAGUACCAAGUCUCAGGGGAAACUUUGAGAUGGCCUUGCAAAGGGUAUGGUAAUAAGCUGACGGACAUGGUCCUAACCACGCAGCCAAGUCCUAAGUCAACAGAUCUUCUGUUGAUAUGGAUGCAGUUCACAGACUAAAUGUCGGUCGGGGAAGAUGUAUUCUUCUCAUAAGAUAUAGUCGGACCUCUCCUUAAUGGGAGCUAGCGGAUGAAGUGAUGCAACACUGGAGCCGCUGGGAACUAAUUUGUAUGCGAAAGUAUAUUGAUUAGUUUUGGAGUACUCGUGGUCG
# STATED CONDITIONS: 37 °C
Think of -0.8 as a floor: if self-splicing fitness (ln) stands on it or above, it is fulfilled; beneath it, not fulfilled.

BIOPOLYMER SEQUENCE | CAT
UCUAAGCAAUAUUACGUAGA | fulfilled
GCUAAGCAAUAUUACGGGUA | fulfilled

Decide: self-splicing fitness (ln) of CACGAGCAAUAUUACGUUAU >= -0.8?
not fulfilled

Decide: self-splicing fitness (ln) of CGAAAGCAAUAUUACGUCGC >= -0.8?
not fulfilled

Decide: self-splicing fitness (ln) of AUAGAGCAAUAUUACGACCG >= -0.8?
not fulfilled

Decide: self-splicing fitness (ln) of CACGAGCAAUAUUACGCCGC >= -0.8?
not fulfilled

Decide: self-splicing fitness (ln) of AUCUAGCAAUAUUACGUCUU >= -0.8?
fulfilled

Decide: self-splicing fitness (ln) of AAUAAGCAAUAUUACGAUUU >= -0.8?
fulfilled

Decide: self-splicing fitness (ln) of GAAUAGCAAUAUUACGUGCA >= -0.8?
fulfilled

Decide: self-splicing fitness (ln) of UUGUAGCAAUAUUACGUUCG >= -0.8?
fulfilled
